Test system: H3255
Test: relative viability (nuclei count vs DMSO), 5 days (fraction); higher = more cells survive
Details: first compound 4 µM

>  <compound>
C[C@@H]1CN(CC(=O)Nc2ccc3c(c2)Cc2cccc(-c4cc(=O)cc(N5CCOCC5)o4)c2S3)C[C@H](C)O1 + COc1cccc2cc(-c3nc([C@H]4CC[C@H](C(=O)O)CC4)n4ncnc(N)c34)[nH]c12 [OSI-027] (partner 0.5 µM)

>  <target or test system>
H3255

>  <relative viability>
0.491

$$$$
>  <compound>
C[C@@H]1CN(CC(=O)Nc2ccc3c(c2)Cc2cccc(-c4cc(=O)cc(N5CCOCC5)o4)c2S3)C[C@H](C)O1 + Nc1nc2[nH]cc(CCc3ccc(C(=O)N[C@@H](CCC(=O)O)C(=O)O)cc3)c2c(=O)[nH]1 [Pemetrexed] (partner 0.2 µM)

>  <target or test system>
H3255

>  <relative viability>
0.489

$$$$
>  <compound>
Clc1ccc(Nc2nnc(Cc3ccncc3)c3ccccc23)cc1 [Vatalanib] + COc1cccc2cc(-c3nc([C@H]4CC[C@H](C(=O)O)CC4)n4ncnc(N)c34)[nH]c12 [OSI-027] (partner 0.5 µM)

>  <target or test system>
H3255

>  <relative viability>
0.504

$$$$
